- Test system: GRK2
- Construct: gene ADRBK1
- condition details: concentration: 1 μM,replicates: in singlicate; n = 1;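 also: KINOMEscan kinase panel screen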
Listed here are compounds together with their documented %Inh.
Please give a number only; it is taken to be in %.

Take a look at these entries with their results.
{"columns": ["mol smiles", "%Inh, %"],
 "data": [
  ["c1ccc(Oc2ccc(Nc3ccnc4ccc(-c5ccccn5)cc34)cc2)cc1", 0],
  ["FC(F)(F)c1cc(Br)cc(Nc2nccc(-c3cnn4ncccc34)n2)c1", 14],
  ["CC(=O)Nc1ccc(-c2cc3ncnc(SCC(=O)O)c3s2)cc1", 11]
]}

Request: Give me measured %Inh, please, for this compound: Cn1cc(-c2cccc3c(N)c(C(N)=O)nnc23)cn1
Result: 7

Request: Give me measured %Inh, please, for this compound: CN1CCN(CCNc2nc3cc(Oc4ccc(NC(=O)Nc5cc(C(F)(F)F)ccc5F)cc4)ccc3[nH]2)CC1.Cl.Cl
Result: 0

Request: Give me measured %Inh, please, for this compound: CC(C)c1nc(-c2cccc(NS(=O)(=O)c3ccccc3)c2)c(-c2ccnc(Nc3ccc4c(c3)CN(C)CC4)n2)s1
Result: 0

Request: Give me measured %Inh, please, for this compound: Cc1ccn2nc(-c3ccc(F)cc3)c(-c3ccncc3)c2c1.Cl
Result: 0

Request: Give me measured %Inh, please, for this compound: Cn1ccc2ncnc(Oc3ccc(NC(=O)Nc4cccc(C(F)(F)F)c4)c(F)c3)c21
Result: 0

Request: Give me measured %Inh, please, for this compound: CCCC(=O)Nc1n[nH]c2ncccc12
Result: 0

Request: Give me measured %Inh, please, for this compound: COc1cccc(C2=C(Nc3cccc(Cl)c3)C(=O)NC2=O)c1
Result: 0

Request: Give me measured %Inh, please, for this compound: CC(=O)Nc1nc2cnc(Nc3cc(NC(=O)c4cccc(CC(C)(C)C#N)c4)ccc3C)nc2s1
Result: 15

Request: Give me measured %Inh, please, for this compound: CCN1CCN(CCCC(=O)Nc2n[nH]c3nc(-c4ccc(O)cc4)c(Br)cc23)CC1
Result: 0

Request: Give me measured %Inh, please, for this compound: CN1CCN(CCCNc2nccc(-c3c(-c4ccc(F)cc4)nn4cc(C(N)=O)ccc34)n2)CC1
Result: 0

====

- System: MARK2
- condition details: concentration: 1 μM,replicates: in singlicate; n = 1
readout label: %Inh (%)
Please give a number only; it is taken to be in %.

Take a look at these entries with their results.
{"columns": ["compound", "%Inh (%)"],
 "data": [
  ["Cn1ccc2ncnc(Oc3ccc(NC(=O)Nc4cnn(C(C)(C)C)c4)c(Cl)c3)c21", 6],
  ["Cn1ccc2ncnc(Oc3ccc(NC(=O)Nc4cccc(C(F)(F)F)c4)c(Cl)c3)c21", 6],
  ["Cn1ccc2ncnc(Oc3ccc(NC(=O)Nc4cncc(C(F)(F)F)c4)c(Cl)c3)c21", 23],
  ["Cc1ccc2c(-c3ccnc(Nc4ccc(C(F)(F)F)cc4)n3)cnn2n1", 0]
]}

Request: Give me measured %Inh, please, for this compound: Cc1n[nH]c2cc(Nc3ccnc(Nc4cccc(CN5CCOCC5)c4)n3)ccc12
Result: 9

Request: Give me measured %Inh, please, for this compound: O=C(Nc1ccccc1)c1cccc(Oc2ccc3nccn3n2)c1
Result: 6

Request: Give me measured %Inh, please, for this compound: O=C(NOCC1CC1)c1cc(Br)c(F)c(F)c1Nc1ccc(I)cc1Cl
Result: 13

Request: Give me measured %Inh, please, for this compound: Cc1ccc(C(=O)Nc2ccc(Oc3ccc4nc(NC(=O)C5CC5)cn4c3)c(F)c2)c(=O)n1-c1ccccc1
Result: 0

Request: Give me measured %Inh, please, for this compound: O=C(Nc1n[nH]c2cc(-c3ccco3)ccc12)C1CC1
Result: 39

Request: Give me measured %Inh, please, for this compound: O=C(Nc1ccc(Oc2ccc3nc(NC(=O)C4CC4)cn3n2)c(F)c1)c1cccn(-c2ccccc2)c1=O
Result: 0

Request: Give me measured %Inh, please, for this compound: CC(=O)Nc1ccc(-c2cc3ncnc(SCC(=O)O)c3s2)cc1
Result: 17

Request: Give me measured %Inh, please, for this compound: Nc1nccc(-c2ccc3c(N)n[nH]c3c2)n1
Result: 0

Request: Give me measured %Inh, please, for this compound: COc1cc(Nc2nccc(N3CCC(NC(=O)c4cccc(C#N)c4)C3)n2)cc(OC)c1OC (stereo not shown)
Result: 0

Request: Give me measured %Inh, please, for this compound: Cc1nnc(-c2ccc3occ(-c4ccc(S(C)=O)cc4)c3n2)o1 (stereo not shown)
Result: 0

Request: Give me measured %Inh, please, for this compound: COc1cccc(OC)c1C(=O)Nc1cccc(-c2nn3ccccc3c2-c2ccnc(Nc3cccc(F)c3)n2)c1
Result: 8

Request: Give me measured %Inh, please, for this compound: CCn1c(-c2nonc2N)nc2cncc(Br)c21
Result: 21

Request: Give me measured %Inh, please, for this compound: Cn1cc(-c2cccc3c(N)c(C(N)=O)nnc23)cn1
Result: 27

Request: Give me measured %Inh, please, for this compound: N#Cc1cccc(C(=O)NC2CCN(c3ccnc(Nc4ccc(F)cc4)n3)C2)c1 (stereo not shown)
Result: 0

Request: Give me measured %Inh, please, for this compound: Cl.c1ccc(Oc2ccc(Nc3ccnc4cc(-c5ccc(CN6CCNCC6)o5)ccc34)cc2)nc1
Result: 0
